The reported numbers originate from PubChem BioAssay (NCI).

- experiment_summary: NCI Yeast Anticancer Drug Screen. Data for the cln2 rad14 strain (AID 165);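 further: 0% = growth equal to vehicle treated cultures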
- experimental_context: S. cerevisiae cln2 rad14 strain, at 50.0 µM, hits give high values
Compounds without any hit were thinned out: in the full panel of roughly 79,000, 15% have a hit.
measurement_label: growth inhibition (%)

>>> endpoint_result("CC(=O)SCCC[Si](C)(C)CCCSC(C)=O")
39
>>> endpoint_result("CCCCCCCCCCCC(=O)N(C)C")
91.5
>>> endpoint_result("CCN(CC)CCN1C(=O)c2cccc3cc(OC)cc(c23)C1=O")
-3.8
>>> endpoint_result("Cc1cc(O)cc(O)c1N=Nc1ccc([N+](=O)[O-])cc1")
72.7
>>> endpoint_result("S=c1[nH]nc(Nc2ccc(Cl)cc2)s1")
90.5
>>> endpoint_result("O=c1ssc2ncccc12")
49.6
>>> endpoint_result("CC(C)(CN1CCCCC1)C(=O)CC(SCCS(=O)(=O)O)c1ccc(Br)cc1 (configuration not stated)")
56.7
>>> endpoint_result("COc1ccc2c(c1)C(=O)c1ccccc1C2")
-19.8
>>> endpoint_result("O=C1NC(=O)C2C3C=CC(C3)C12 (configuration not stated)")
-13.2
>>> endpoint_result("CC/C(=C(\\c1ccccc1)c1ccc(OCCN(C)C)cc1)c1ccccc1")
92
>>> endpoint_result("O=[N+]([O-])c1cccc([N+](=O)[O-])c1S(=O)(=O)c1ccccc1")
34.8
>>> endpoint_result("C/C(=N\\O)C1CC2C=C(C#N)C1N(Cc1ccccc1)C2 (configuration not stated)")
11.3
>>> endpoint_result("CN1CCc2ccccc2C1Cc1ccccc1NC(=O)c1sc2ccccc2c1Cl (configuration not stated)")
77.3
>>> endpoint_result("Cc1cc(I)ccc1N")
62.1
>>> endpoint_result("CC1=C(C)Cc2c(O)ccc(O)c2C1")
48.9
>>> endpoint_result("OC1CCCc2c1cc1ccc3cccc4ccc2c1c34 (configuration not stated)")
94
>>> endpoint_result("O=[N+]([O-])/C=C/c1ccc2ccccc2c1")
98.2

====

Reported growth inhibition by item:
- experiment_summary: NCI Yeast Anticancer Drug Screen. Data for the mlh1 strain (AID 171);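 further: 0% = growth of vehicle-treated control cultures of the same strain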
- experimental_context: S. cerevisiae mlh1 strain growth inhibition; at 3.7 µM; hits give high values
The panel holds about 79,000 compounds, 15% with a hit somewhere; the sample as a whole holds those more often.
measurement_label: growth inhibition (%)

>>> endpoint_result("COc1cc2c(c(OC)c1OC)-c1c(cc3c(c1OC)OCO3)CC(C)C(C)(O)C2OC(=O)c1ccccc1 (configuration not stated)")
-6
>>> endpoint_result("O=[N+]([O-])c1ccc2nc3ccccc3cc2c1")
0
>>> endpoint_result("CCC(=O)OCCn1c2nc(=O)[nH]c(=O)c-2nc2cc(C)c(C)cc21")
-6
>>> endpoint_result("CC(O)C(O)C(O)C(/C=N\\Nc1ccccc1)=N/Nc1ccccc1 (configuration not stated)")
4
>>> endpoint_result("O=C(Cc1csc2[n+]1C(=O)/C(=C/c1ccc(Cl)cc1)S2)Nc1ccccc1")
1
>>> endpoint_result("O=C(CC(=O)n1nc(-c2ccccc2)c(N=Nc2ccccc2C(=O)O)c1-c1ccccc1)Nc1ccc(Cl)cc1")
-3
>>> endpoint_result("CCCCCCc1cc(C(=O)OC/C(C)=N/NC(N)=O)c2ccccc2n1")
-4
>>> endpoint_result("O=C1Nc2ccc(Cl)c(I)c2C1=O")
29
>>> endpoint_result("COc1ccc(/C=C/C(=O)C(C)(C)Br)cc1")
19
>>> endpoint_result("NNc1c(F)c(F)cc(F)c1F")
-7
>>> endpoint_result("O=C(Nc1ccccc1)OCCc1ccc(Cl)c(Cl)c1")
2
>>> endpoint_result("Cc1ccc2ccc(O)cc2c1")
-19
